- target.entity: T1, GFP-9S library array, motif 4 ND N98S (synthetic construct, N98S)
- T1 chain: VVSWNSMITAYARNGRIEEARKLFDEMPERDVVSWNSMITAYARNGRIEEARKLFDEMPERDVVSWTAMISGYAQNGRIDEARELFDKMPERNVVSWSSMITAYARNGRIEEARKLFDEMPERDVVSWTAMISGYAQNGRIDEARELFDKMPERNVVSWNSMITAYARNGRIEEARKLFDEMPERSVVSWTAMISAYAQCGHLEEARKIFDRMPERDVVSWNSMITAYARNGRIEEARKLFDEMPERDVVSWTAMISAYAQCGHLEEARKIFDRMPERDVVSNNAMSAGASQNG
- test: high-throughput RNA pulldown from lysate on Ni-NTA beads; HRP: 50 mM Tris pH 8, 150 mM NaCl, 1 mM beta-mercaptoethanol, 50 ug/ml BSA, 3 ug/ml yeast RNA, 0.5% heparin; ITC and FP: Tris pH 8, 200 mM KCl, 5% glycerol; MST: 50 mM Tris pH 8, 200 mM NaCl, 1 mM DTT, BSA, heparin, 0.05% Tween 20
- test.context: tags: N-terminal His-eGFP; label: 5' IRDye 800CW
pKd: −log10 of the molar value.

>  <binder>
AUUAUACGUGA (ssRNA) [IR-rpoA-U]

>  <pKd>
6.58

$$$$
>  <binder>
AUUAAACGUGA (ssRNA) [IR-rpoA-A]

>  <pKd>
6.24

$$$$
